# Assay info: Aqueous solubility of the compound in phosphate buffered saline at pH 7.4 at 8 to 2000 uM by nephelometric method
# Format: physicochemical
Reported metric: solubility kinetic (µM)

[a] Cc1sc(C2CCCN2C(=O)CN(C)C)cc1C(=O)Nc1ncc(Cl)s1 (stereo unspecified)
[b] Cc1sc(C2CCCN2C(=O)CN(C)C)cc1C(=O)Nc1nccs1 (stereo unspecified)
// pick min by solubility kinetic: a , b Please indicate the selected item by its label. a

[A] Cc1sc(C2CCCN2C(=O)CN)cc1C(=O)Nc1nccs1 (stereo unspecified)
[B] Cc1sc([C@H]2CCCN2C(=O)CN(C)C)cc1C(=O)Nc1ncc(Cl)s1.Cl
[C] Cc1sc(C2CCCN2C(=O)CCN)cc1C(=O)Nc1nccs1 (stereo unspecified)
Ranking field: solubility kinetic; order: falling. // list labels; follow requested order C, A, B
(C: 15.6 µM, A: 7.81 µM, B: 1.95 µM)

---

# Assay info: AUC (0 to 1.5 hrs) in C57BL/6J mouse plasma at 10 mg/kg, po administered as single dose by LC/MS/MS analysis
# Type: ADME, organism-based
# Design: time < 1.5 hr, dose 10 mg/kg, route oral
Reported metric: AUC(0-t) at 1.5 h (ng·h/mL)

[P] CCN(CC(=O)O)CC(=O)N1CCC[C@H]1c1cc(C(=O)Nc2ncc(F)s2)c(C)s1
[Q] CS(=O)(=O)c1ccc([C@@H](C[C@H]2CCC(=O)C2)C(=O)Nc2cnccn2)cc1Cl
Higher AUC(0-t) at 1.5 h: P or Q ? Please indicate the selected item by its label. P
(P: 6750 ng·h/mL, Q: 574 ng·h/mL)

---

# Measured on: Hexokinase-4 (Homo sapiens) (UniProt P35557)
# Sequence (P35557 whole entry): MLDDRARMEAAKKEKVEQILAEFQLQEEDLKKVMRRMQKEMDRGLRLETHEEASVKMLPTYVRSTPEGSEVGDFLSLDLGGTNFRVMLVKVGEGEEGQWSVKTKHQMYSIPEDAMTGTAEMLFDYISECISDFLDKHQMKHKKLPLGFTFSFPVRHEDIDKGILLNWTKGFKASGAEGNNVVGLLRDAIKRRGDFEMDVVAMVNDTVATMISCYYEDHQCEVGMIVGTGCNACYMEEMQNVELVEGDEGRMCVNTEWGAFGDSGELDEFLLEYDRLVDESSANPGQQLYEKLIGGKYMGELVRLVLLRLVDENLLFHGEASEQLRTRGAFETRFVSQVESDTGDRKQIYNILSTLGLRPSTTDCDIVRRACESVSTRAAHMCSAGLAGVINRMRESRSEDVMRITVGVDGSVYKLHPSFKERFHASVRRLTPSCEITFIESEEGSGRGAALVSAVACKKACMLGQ
# Assay info: Activation of human glucokinase assessed as conversion of D-glucose to D-glucose-6-phosphate at 10 uM preincubated for 10 mins followed by 5 mM glucose addition measured for 5 mins at 30 secs time interval by G6PDH/NADP coupled assay relative to control
Reported metric: fold change (FC)

Some solved entries appear below for comparison.
{"Compound": "Cc1sc(C2CCCN2C(=O)CNCC(=O)O)cc1C(=O)Nc1ncc(Cl)s1 (centres undefined)", "Measured on": "Hexokinase-4 (Homo sapiens) (UniProt P35557)", "fold change (FC)": 4.75}
{"Compound": "Cc1sc(C2CCCN2C(=O)CCN)cc1C(=O)Nc1nc2c(s1)CCC2 (centres undefined)", "Measured on": "Hexokinase-4 (Homo sapiens) (UniProt P35557)", "fold change (FC)": 3.46}
{"Compound": "Cc1sc(-c2ccccc2C(=O)NCCc2nnn[nH]2)cc1C(=O)Nc1nc2c(s1)CCC2", "Measured on": "Hexokinase-4 (Homo sapiens) (UniProt P35557)", "fold change (FC)": 0.84}
{"Compound": "Cc1sc(C2CCCN2C(=O)CN)cc1C(=O)Nc1nccs1 (centres undefined)", "Measured on": "Hexokinase-4 (Homo sapiens) (UniProt P35557)", "fold change (FC)": 3.67}
{"Compound": "Cc1sc(C2CCCN2C(=O)CNS(C)(=O)=O)cc1C(=O)Nc1ncc(Cl)s1 (centres undefined)", "Measured on": "Hexokinase-4 (Homo sapiens) (UniProt P35557)", "fold change (FC)": 6.21}

[1] Cc1sc(C2CCCN2C(=O)CN(C)C)cc1C(=O)Nc1nccs1 (centres undefined)
[2] Cc1sc(C2CCCN2C(=O)CN(C)CC(=O)O)cc1C(=O)Nc1ncc(F)s1 (centres undefined)
[3] Cc1sc([C@@H]2CCCN2C(=O)CN(C)C)cc1C(=O)Nc1ncc(Cl)s1.Cl
[4] CC(=O)N1CCCC1c1cc(C(=O)Nc2nc3c(s2)CCC3)c(C)s1 (centres undefined)
[5] CC(=O)N1CCCCC1c1cc(C(=O)Nc2nc3c(s2)CCC3)c(C)s1 (centres undefined)
Ascending sort, fold change (FC). // list labels; follow requested order 5, 4, 1, 2, 3
(5: 1.13, 4: 2.53, 1: 4.7, 2: 6.92, 3: 10.4)

[A] Cc1sc(-c2ccccc2C(=O)NCCN(C)C)cc1C(=O)Nc1nc2c(s1)CCC2
[B] Cc1sc(C2CCCN2C(=O)CN(C)CCCCC(=O)O)cc1C(=O)Nc1ncc(F)s1 (centres undefined)
Higher fold change (FC): A or B ? Please indicate the selected item by its label. B
(B: 6.95, A: 4.31)
